Molecular target: hFASN enzyme (full length) (Homo sapiens, UniProt P49327)
Construct: 10 μL hFASN enzyme (full length, 300 ng, purified in house); made in house
Sequence (P49327 whole entry): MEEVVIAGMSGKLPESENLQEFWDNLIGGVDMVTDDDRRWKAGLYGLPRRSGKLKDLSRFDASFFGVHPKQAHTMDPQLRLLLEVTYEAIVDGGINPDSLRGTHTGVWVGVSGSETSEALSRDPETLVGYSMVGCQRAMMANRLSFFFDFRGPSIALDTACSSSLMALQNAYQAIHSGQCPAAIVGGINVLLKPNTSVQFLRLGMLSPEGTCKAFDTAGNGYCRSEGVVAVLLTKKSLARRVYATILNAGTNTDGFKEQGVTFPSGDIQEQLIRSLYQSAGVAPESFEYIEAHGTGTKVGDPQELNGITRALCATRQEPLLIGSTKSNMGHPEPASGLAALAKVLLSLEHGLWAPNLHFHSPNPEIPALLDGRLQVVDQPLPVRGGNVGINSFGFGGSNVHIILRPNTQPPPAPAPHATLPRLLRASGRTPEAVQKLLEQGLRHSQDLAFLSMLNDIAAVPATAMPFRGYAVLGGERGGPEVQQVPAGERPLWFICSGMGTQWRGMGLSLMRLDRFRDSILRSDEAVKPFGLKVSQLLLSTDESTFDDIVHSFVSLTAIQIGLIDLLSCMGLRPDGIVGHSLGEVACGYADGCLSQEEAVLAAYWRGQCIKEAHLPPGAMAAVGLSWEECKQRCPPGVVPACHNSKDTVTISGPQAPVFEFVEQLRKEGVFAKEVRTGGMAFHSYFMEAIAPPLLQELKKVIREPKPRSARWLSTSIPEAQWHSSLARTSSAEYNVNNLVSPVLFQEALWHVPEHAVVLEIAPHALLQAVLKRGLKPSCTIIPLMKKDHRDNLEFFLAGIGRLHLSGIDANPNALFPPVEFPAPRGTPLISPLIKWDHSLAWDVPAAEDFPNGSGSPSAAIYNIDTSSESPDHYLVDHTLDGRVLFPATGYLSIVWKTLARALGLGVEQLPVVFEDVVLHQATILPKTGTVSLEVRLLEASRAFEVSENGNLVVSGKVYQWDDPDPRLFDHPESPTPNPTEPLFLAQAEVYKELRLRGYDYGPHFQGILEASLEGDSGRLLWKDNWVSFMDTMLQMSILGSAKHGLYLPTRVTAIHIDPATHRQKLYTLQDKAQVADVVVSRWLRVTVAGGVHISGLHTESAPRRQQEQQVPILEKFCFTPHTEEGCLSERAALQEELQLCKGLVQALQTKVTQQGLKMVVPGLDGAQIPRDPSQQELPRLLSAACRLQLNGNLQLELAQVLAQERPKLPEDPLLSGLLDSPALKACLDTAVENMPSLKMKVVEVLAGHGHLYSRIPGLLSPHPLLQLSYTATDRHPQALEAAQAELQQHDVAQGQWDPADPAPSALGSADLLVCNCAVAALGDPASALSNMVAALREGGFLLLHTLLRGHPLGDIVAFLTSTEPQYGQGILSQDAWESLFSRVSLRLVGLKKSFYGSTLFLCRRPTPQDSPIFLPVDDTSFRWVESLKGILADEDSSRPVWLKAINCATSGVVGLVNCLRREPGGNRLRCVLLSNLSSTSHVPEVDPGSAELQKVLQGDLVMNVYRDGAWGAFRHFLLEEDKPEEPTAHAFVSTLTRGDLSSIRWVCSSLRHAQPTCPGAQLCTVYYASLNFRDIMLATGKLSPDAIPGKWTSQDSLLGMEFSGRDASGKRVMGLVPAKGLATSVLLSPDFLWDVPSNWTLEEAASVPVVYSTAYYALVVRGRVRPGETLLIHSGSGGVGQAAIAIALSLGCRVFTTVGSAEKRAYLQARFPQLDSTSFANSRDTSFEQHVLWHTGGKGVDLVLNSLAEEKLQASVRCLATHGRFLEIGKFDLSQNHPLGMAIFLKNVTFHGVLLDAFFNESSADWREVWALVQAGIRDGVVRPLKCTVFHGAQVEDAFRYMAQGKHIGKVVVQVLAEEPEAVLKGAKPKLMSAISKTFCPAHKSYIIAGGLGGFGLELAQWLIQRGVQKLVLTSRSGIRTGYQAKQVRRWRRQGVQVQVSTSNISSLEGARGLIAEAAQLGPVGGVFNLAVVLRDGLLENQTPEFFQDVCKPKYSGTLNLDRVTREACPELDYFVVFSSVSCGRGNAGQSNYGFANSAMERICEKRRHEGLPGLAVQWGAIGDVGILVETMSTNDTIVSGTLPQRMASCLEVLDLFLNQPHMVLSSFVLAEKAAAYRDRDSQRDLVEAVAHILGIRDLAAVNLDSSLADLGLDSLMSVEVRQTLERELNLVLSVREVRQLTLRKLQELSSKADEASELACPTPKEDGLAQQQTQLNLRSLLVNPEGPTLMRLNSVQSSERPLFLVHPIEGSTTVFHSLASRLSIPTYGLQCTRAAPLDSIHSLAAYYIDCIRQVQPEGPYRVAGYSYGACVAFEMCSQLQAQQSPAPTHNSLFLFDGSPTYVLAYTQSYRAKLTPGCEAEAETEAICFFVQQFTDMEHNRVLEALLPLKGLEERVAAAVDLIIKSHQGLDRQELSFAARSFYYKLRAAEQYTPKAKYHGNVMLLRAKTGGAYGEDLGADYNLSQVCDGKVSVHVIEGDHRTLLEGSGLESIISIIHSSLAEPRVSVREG
Assay: Fatty Acid Synthase (FASN) inhibition scintillation proximity assay
Assay type: biochemical
Conditions: read-out: Human FASN pIC50 (converted)
measure name: IC50 (nM)
API: value field is a number in nM; no unit string.

For orientation, consider the following solved cases.
# compound, IC50 (nM)
data = [
    ("Cc1sc2ccc(-c3ccc(C4=NC5(CC5)C(=O)N4CC4CN(C(=O)C5CC5)C4)cc3F)cc2c1C [compound 434]", 2040),
    ("Cn1cc(-c2ccc(-c3ccc(C4=NC5(CC5)C(=O)N4CC4CCN(C(=O)C5CC5)CC4)cc3)cc2)cn1 [compound 56]", 407),
    ("Cn1cnc2cc(-c3ccc(C4=NC5(CC5)C(=O)N4CC4CN(C(=O)C5(C)CC5)C4)c(F)c3)ccc21 [compound 378]", 38.9),
    ("O=C(C1CC1)N1CC[C@@H](CN2C(=O)C3(CCOC3)N=C2c2ccc(-c3ccc4occc4c3)cc2)C1 (stereo partly shown) [compound 686]", 182),
    ("Cn1cc(-c2ccc(-c3ccc(C4=NC5(CCOCC5)C(=O)N4C[C@@H]4CCN(C(=O)C5CC5)C4)cc3)cc2)cn1 [compound 655]", 178),
    ("CN(C)CC(=O)N1CCC2(CC1)N=C(c1ccc(-c3ccc(-c4cnn(C)c4)cc3)cc1)N(CC1CN(C(=O)C3CC3)C1)C2=O [compound 768]", 1450),
]

Input: Give a short answer stating reported IC50 for Cn1ccc2cc(-c3ccc(C4=NC5(CC5)C(=O)N4CC4CN(C(=O)C5CC5)C4)cc3)ccc21 [compound 344] .
Output: 25.7
